studySystem: hLTBP1-proTGFβ1 as produced in the cell-based activation assay (human, UniProt P01137 30-390; Q14766 347-1721)
Sequence (P01137 30-390 limits assumed, chain 1 of 2): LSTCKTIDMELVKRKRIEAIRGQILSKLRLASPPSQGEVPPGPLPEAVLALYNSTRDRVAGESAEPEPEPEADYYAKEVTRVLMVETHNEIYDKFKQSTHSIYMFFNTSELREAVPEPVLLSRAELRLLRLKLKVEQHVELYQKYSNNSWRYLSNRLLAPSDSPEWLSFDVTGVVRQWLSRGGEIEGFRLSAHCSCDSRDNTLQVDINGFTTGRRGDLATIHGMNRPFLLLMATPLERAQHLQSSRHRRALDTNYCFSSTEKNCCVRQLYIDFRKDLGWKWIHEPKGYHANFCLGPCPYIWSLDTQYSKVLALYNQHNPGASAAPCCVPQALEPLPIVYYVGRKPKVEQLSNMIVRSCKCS
Sequence (Q14766 347-1721 limits assumed, chain 2 of 2): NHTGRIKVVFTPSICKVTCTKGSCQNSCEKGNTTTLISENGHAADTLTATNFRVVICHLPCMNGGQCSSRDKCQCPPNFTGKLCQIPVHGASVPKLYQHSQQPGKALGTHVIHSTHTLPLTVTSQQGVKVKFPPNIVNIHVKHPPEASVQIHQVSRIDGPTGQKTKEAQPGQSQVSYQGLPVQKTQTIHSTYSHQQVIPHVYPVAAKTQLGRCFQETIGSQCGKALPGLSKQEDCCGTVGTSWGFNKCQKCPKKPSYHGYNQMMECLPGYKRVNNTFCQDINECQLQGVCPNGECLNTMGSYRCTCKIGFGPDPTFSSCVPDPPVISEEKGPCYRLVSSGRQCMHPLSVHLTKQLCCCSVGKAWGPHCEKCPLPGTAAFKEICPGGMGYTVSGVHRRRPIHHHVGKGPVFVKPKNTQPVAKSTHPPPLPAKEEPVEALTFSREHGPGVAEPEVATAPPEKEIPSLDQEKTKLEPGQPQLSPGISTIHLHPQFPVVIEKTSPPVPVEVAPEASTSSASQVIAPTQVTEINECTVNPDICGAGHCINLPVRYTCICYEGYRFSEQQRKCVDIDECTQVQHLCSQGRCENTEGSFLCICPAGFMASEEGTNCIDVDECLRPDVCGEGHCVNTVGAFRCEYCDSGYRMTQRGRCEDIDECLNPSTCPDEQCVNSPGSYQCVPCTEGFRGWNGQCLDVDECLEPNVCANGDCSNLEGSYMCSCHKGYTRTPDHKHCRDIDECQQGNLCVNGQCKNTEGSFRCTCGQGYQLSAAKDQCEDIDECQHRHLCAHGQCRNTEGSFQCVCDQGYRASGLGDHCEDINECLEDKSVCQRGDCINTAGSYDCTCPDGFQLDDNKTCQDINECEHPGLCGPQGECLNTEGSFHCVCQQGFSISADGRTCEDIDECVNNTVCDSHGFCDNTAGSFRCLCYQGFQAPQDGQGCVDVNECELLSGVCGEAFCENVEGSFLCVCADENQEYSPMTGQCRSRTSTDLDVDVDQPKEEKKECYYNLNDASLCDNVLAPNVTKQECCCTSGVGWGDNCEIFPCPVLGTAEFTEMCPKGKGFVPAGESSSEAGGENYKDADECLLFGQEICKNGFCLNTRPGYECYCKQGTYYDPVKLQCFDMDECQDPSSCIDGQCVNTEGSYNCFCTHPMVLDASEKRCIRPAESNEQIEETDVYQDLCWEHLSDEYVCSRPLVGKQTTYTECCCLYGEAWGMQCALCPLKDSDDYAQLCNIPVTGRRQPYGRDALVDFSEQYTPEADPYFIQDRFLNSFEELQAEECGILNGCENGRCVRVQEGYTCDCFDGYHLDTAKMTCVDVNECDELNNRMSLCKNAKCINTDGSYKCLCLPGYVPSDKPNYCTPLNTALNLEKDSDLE
assayMethodText: cell-based or functional assay
Below is a list of entries, each paired with its recorded IC50, reporter cell assay value.
State the answer as a number, implicitly in nM.

Give IC50, reporter cell assay for the following binder: Ab21 (antibody, V domains shown) VH: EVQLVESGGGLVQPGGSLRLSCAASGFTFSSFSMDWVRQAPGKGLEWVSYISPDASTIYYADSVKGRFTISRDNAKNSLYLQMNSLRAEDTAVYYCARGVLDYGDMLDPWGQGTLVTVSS VL: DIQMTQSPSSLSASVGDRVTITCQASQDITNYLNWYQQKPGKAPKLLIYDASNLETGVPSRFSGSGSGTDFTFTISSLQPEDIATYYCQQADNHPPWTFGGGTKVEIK
1.61

Give IC50, reporter cell assay for the following binder: Ab6 (antibody, V domains shown) VH: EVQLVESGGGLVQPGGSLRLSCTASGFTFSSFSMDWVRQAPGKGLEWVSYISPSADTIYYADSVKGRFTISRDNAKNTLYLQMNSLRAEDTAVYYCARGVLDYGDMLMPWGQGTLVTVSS VL: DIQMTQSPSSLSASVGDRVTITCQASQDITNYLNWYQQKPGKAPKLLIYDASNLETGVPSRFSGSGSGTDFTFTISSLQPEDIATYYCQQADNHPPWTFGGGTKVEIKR
2.74

Now consider the entry below.
Give IC50, reporter cell assay for the following binder: Ab12 (antibody, IgG4, V domains shown) VH: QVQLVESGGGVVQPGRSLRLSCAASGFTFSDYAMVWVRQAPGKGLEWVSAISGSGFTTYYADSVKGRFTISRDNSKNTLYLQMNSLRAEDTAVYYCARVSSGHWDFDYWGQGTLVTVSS VL: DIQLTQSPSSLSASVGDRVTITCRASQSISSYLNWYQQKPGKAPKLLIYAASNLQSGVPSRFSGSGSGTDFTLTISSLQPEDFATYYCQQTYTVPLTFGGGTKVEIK
3.79
